- Target: T1, recombinant GST-SNAP25197 (UniProt P60880 1-197)
- T1 construct: range 1-197; also called BoNT/A-cleaved form of SNAP25
- T1 sequence (P60880 1-197 limits assumed): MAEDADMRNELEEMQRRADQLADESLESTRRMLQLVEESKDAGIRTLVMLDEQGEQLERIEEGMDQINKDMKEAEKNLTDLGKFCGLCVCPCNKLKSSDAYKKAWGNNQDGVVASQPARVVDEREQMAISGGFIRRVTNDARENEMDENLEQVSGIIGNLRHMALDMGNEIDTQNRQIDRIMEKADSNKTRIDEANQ
- Measurement notes: direct ELISA; ratio of A450 with SNAP25197 to A450 with SNAP25FL
Readout kind: Ratio197/206
# output: bare number, no unit

Below: 2 binders and their reported Ratio197/206.
# Binder, Ratio197/206
data = [
    ("C14 IgG (antibody, V domains shown) VH: EVKLVESGGGLVQPKGSLKLSCAASGFTFNTNAMNWVRQAPGKGLEWVARIRSKSDNYATYYADSVKDRFTISRDDSPSMLYLQMNNLKTEDTAMYYCVYGRSYGGLGYWGQGTLVTVSA VL: DIVLTQSPASLAVSLGQRATISCRASKSVSTSGYSYVHWYQQKPGQPPKLLIYLASNLESGVPARFSGSGSGTDFTLNIHPVEEEDAATYYCQHSRELPLTFGAGTKLELK", 953),
    ("C24 IgG (antibody, V domains shown) VH: EVKLVESGGGLVQPKGSLKLSCAASGYTFNTYAMNWVRQAPGKGLEWVARIRSKSNNYTTYYADSVKDRFTISRDDSQSMLYLQINNLKTEDTAMYYCVGQILYYYVGSPAWFAYWGQGTLVTVSA VL: DIVMTQSPASLAVSLGQRATISCRASKSVSTSGYSYMHWYQQKPGQPPKLLIFLASNLESGVPARFSGSGSGTDFTLNIHPVEEEDAATYYCQHSRELPWTFGGGTKLEIK", 973),
]

Then there is this binder:
Ratio197/206 in this record for C4 IgG (antibody, V domains shown) VH: DVKLQESGPGLVKPSQSLSLTCTVTGYSITSDYAWNWIRQFPGNKLEWMGYISYSVGTRYNPSLKSRISITRDTSKNQFFLLLKSVTNEDTATYFCARKGEYGFAYWGQGTLVTVSA VL: DIVMTQSPASLAVSLGQRATISCRASKSVSTSGYSYMHWYQQKPGQPPKLLIYLASNLESGVPARFSGSGSGTDFTLNIHPVEEEDAATYYCQHSRELPLTFGAGTKLELK : 919
